Biological target: PCSK9 (Homo sapiens)
Construct: biotin (biotinylated); purchased
Sequence (Q8NBP7 153-692): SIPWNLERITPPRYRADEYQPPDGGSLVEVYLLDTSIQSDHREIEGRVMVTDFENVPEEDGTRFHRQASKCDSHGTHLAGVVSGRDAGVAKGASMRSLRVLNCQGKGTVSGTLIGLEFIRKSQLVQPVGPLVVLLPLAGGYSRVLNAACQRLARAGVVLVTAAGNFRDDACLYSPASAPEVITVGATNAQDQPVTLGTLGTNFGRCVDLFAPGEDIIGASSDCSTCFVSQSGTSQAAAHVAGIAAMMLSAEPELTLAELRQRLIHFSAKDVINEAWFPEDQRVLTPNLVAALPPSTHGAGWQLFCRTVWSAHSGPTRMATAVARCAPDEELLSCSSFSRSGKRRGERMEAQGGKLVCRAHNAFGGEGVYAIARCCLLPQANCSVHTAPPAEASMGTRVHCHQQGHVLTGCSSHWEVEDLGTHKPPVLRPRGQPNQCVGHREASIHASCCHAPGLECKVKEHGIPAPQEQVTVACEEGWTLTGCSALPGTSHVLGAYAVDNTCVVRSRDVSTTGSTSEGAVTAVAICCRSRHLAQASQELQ
Assay: PCSK9 Alexa FRET Standard TR-FRET assay
Assay type: binding
Conditions: Ki calculated from IC50 and KD of AF cyclic peptide Reagent A; 0.5 nM PCSK9, 20 nM AF cyclic peptide; read-out: Alexa FRET Stdt TR-FRET

mol	targetEntity	Ki
CCCCCCCCCCCCCCCC(=O)NCC[N+](C)(C)CCOCCOCCC(=O)NC[C@H]1NC(=O)[C@H](C)NC(=O)CCC(=O)N2CCCCCCn3cc(c4cc(F)ccc43)C[C@@H]3NC(=O)[C@H](Cc4cccc(c4)CNC(=O)CO[C@H]4CCN(C3=O)[C@@H]4C(=O)N[C@@H]([C@@H](C)O)C(=O)N[C@@H](Cc3ccc(OC)cc3)C(=O)N3CCC[C@@]3(C)C(=O)NCCc3ccc(cc3)C2)NC1=O	PCSK9 (Homo sapiens)	< 1.26 nM
COc1ccc(C[C@@H]2NC(=O)[C@H]([C@@H](C)O)NC(=O)[C@@H]3[C@@H]4CCN3C(=O)[C@@H]3Cc5cn(c6ccc(F)cc56)CCCCCCN(Cc5ccc(cc5)CCNC(=O)[C@]5(C)CCCN5C2=O)C(=O)CCC(=O)N[C@@H](CNC(=O)COCCOCC[N+](C)(C)CCNC(=O)COCCOCCNC(=O)COCCOCCNC(=O)CC[C@H](NC(=O)CCCCCCCCOCCCCCCCCC(=O)O)C(=O)O)C(=O)N[C@H](C)C(=O)N[C@@H](Cc2cccc(c2)CNC(=O)CO4)C(=O)N3)cc1	PCSK9 (Homo sapiens)	< 1.26 nM
CCCCCCC(=O)NCCCCCCCC(=O)NCC[N+](C)(C)CCOCCOCCC(=O)NC[C@H]1NC(=O)[C@H](C)NC(=O)CCC(=O)N2CCCCCCn3cc(c4cc(F)ccc43)C[C@@H]3NC(=O)[C@H](Cc4cccc(c4)CNC(=O)CO[C@H]4CCN(C3=O)[C@@H]4C(=O)N[C@@H]([C@@H](C)O)C(=O)N[C@@H](Cc3ccc(OC)cc3)C(=O)N3CCC[C@@]3(C)C(=O)NCCc3ccc(cc3)C2)NC1=O	PCSK9 (Homo sapiens)	< 1.26 nM
